assayed target: hGIPR (Homo sapiens, UniProt P48546)
Sequence (P48546 22-466): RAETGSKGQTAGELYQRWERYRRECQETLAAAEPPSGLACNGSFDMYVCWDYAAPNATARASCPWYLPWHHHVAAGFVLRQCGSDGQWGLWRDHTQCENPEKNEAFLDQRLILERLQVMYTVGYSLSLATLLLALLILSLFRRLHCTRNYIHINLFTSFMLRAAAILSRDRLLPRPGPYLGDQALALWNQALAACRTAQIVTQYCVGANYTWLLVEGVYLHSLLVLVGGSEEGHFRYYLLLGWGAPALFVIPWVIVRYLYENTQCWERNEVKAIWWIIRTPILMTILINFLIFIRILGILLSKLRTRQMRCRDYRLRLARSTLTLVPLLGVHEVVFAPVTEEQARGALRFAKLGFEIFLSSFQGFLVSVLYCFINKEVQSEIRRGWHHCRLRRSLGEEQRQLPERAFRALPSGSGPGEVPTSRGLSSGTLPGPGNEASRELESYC
protocol notes: Functional cAMP activation in the presence of 0.1% casein (no HSA);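 note: intracellular cAMP rise after 30 min at 37 °C read by HTRF against a standard curve, scaled between buffer alone (0%) and top control ligand concentration (100%), four-parameter fit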
Format: cell-based
run parameters: in the presence of 0.1% casein (no HSA); geometric mean; read-out: Relative cAMP EC50, hGIPR
Starred links: 1 amine or outer side, 2 acyl side, 3 side chain; linkers in the order of their positions; H or OH if unused. Non-standard residues stand in square brackets, D forms with d. Groups on a side chain read outwards from the residue. No end group written: not given here. *: point of attachment. C20 diacid = O=C(O)CCCCCCCCCCCCCCCCCCC(=O)*; C18 diacid = O=C(O)CCCCCCCCCCCCCCCCC(=O)*; αMePhe(2-F) = C[C@](N)(Cc1ccccc1F)C(=O)O; γGlu = O=C(O)[C@H](CCC(=O)[*:2])N[*:1]; αMe4Pal = C[C@](N)(Cc1ccncc1)C(=O)O; αMeY = C[C@](N)(Cc1ccc(O)cc1)C(=O)O; 4Pal = N[C@@H](Cc1ccncc1)C(=O)O; αMeL = CC(C)C[C@](C)(N)C(=O)O; αMeS = C[C@](N)(CO)C(=O)O; Orn = NCCC[C@H](N)C(=O)O; AEEA = NCCOCCOCC(=O)O; Aib = CC(C)(N)C(=O)O
Please respond with MET when measured EC50 is strictly beneath 0.09 nM, and with NOT MET in all other cases.

{"substance": "H-Y[Aib]QGTFTSD[4Pal]S[Orn][αMeL]LDKK([γGlu-γGlu-C18 diacid])AQ[Aib]AFIE[αMeY]LLEGGPSSGAPPPSGS-NH2 [Example 942]", "class name": "NOT MET"}
{"substance": "H-Y[Aib]QGTFTSDYSI[αMeL]LDKQAAK([AEEA-AEEA-γGlu-C20 diacid])QFIEWLIEGGPSSGEPPPGEG-NH2 [Example 318]", "class name": "NOT MET"}
{"substance": "H-Y[Aib]QGTFTSD[4Pal]SQ[αMeL]LD[Orn]K([AEEA-γGlu-γGlu-C18 diacid])AQ[αMe4Pal]AFIEYLIE[dA]GPSSGEPPPSGS-NH2 [Example 1018]", "class name": "NOT MET"}
{"substance": "H-Y[Aib]QGT[αMePhe(2-F)]TSD[4Pal][αMeS]I[αMeL]LD[Orn]K([AEEA-γGlu-C18 diacid])AQ[αMe4Pal]EFI[dE][αMeY]LIEGGPSSGEPPPEGE-NH2 [Example 1149]", "class name": "MET"}
{"substance": "H-Y[Aib]QGTFTSDFS[Orn][αMeL]LDKK([AEEA-γGlu-C20 diacid])AQ[Aib]AFIEYLLAGGPSSGAPPPSGD-NH2 [Example 81]", "class name": "NOT MET"}
{"substance": "H-Y[Aib]QGTFTSDYSR[αMeL]LDKK([AEEA-γGlu-C18 diacid])AQ[Aib]AFIEYLLEGGESSGAPPPSGS-NH2 [Example 361]", "class name": "NOT MET"}
{"substance": "Y[Aib]QGTFTSD[4Pal]SQ[αMeL]LD[Orn]K([dE-γGlu-C18 diacid])AQ[αMe4Pal]AFIEYLIA[Aib]GPSSGEPPPSGSEE-NH2 [Example 1101]", "class name": "MET"}
{"substance": "H-Y[Aib]QGTFTSD[4Pal]SQ[αMeL]LDKK([γGlu-γGlu-C18 diacid])AQ[Aib]AFIE[αMeY]LLEGGPSSGAPPPSGSEE-NH2 [Example 945]", "class name": "NOT MET"}
{"substance": "H-Y[Aib]QGTFTSDYSI[αMeL]LDKQAAK([AEEA-AEEA-γGlu-C20 diacid])AFVEWLLA[Aib]GPSSGEPPPSEG-NH2 [Example 317]", "class name": "NOT MET"}
{"substance": "H-Y[Aib]QGT[αMePhe(2-F)]TSD[4Pal][αMeS]I[αMeL]LD[Orn]K([AEEA-γGlu-C18 diacid])AQ[αMe4Pal]EFI[dE][αMeY]LVEGGPSSGAPPPTGE-NH2 [Example 1152]", "class name": "MET"}
